Values were extracted from the Immune Epitope Database (IEDB).

tgt: HLA-A*01:01
experimentalDetails: IEDB peptide-MHC binding, purified MHC/direct/fluorescence; filed as Kd, often an IC50 or EC50 that approximates it; bounds were set here for any values at or beyond the usual limits of such assays
runConditions: source organism: Brucella abortus 2308
pKd: −log10 of the molar value.
measure: pKd

Look up pKd: RVYKNYDPR
≤ 4.70

---

tgt: HLA-B*15:17
experimentalDetails: IEDB peptide-MHC binding, purified MHC/direct/fluorescence; filed as Kd, often an IC50 or EC50 that approximates it; bounds were set here for any values at or beyond the usual limits of such assays
runConditions: source organism: Entamoeba histolytica HM-1:IMSS
measure: Kd

Look up Kd: RQRHYFDSA
≥ 20 µM
